- Test protocol: Stability in cryopreserved hepatocytes, dog
Would you kindly list Trep Concentration (μM) 0 min for each of these compounds?

Kindly note the recorded Trep Concentration (μM) 0 min for CCCCCC(CCC1C(O)CC2Cc3c(cccc3OCC(=O)O)CC21)OC(=O)c1cccc(O)c1 (stereo not drawn) [LX] , which is 0 µM

Entry CCCCCC(CCC1C(O)CC2Cc3c(cccc3OCC(=O)O)CC21)OC(=O)c1ccc(O)c(O)c1 (stereo not drawn) [LXVI] , Trep Concentration (μM) 0 min reported as 0 µM

The reported Trep Concentration (μM) 0 min of the compound CCCCCC(CCC1C(O)CC2Cc3c(cccc3OCC(=O)O)CC21)OC(=O)N1CCC(O)CC1 (stereo not drawn) [LVIII] was 0 µM

Quick note, Trep Concentration (μM) 0 min for CCCCCC(CCC1C(O)CC2Cc3c(cccc3OCC(=O)O)CC21)OC(=O)NC (stereo not drawn) [VIII] landed at 0 µM

The compound listed as CCCCCC(CCC1C(O)CC2Cc3c(cccc3OCC(=O)O)CC21)OC(=O)c1ccc(C)cc1 (stereo not drawn) [XLVIII] has a reported Trep Concentration (μM) 0 min of 0 µM

Lab note: CCCCCC(CCC1C(O)CC2Cc3c(cccc3OCC(=O)O)CC21)OCCC (stereo not drawn) [XLVI] gave Trep Concentration (μM) 0 min of 0 µM

The measured Trep Concentration (μM) 0 min associated with CCCCCC(CCC1C(O)CC2Cc3c(cccc3OCC(=O)O)CC21)OC(C)=O (stereo not drawn) [XLIII] reads 0.0381 µM

Field Trep Concentration (μM) 0 min (entry CCCCCC(CCC1C(O)CC2Cc3c(cccc3OCC(=O)O)CC21)OC(=O)c1ccc(O)cc1 (stereo not drawn) [LXVIII] ) reads 0 µM

Please fill in: Trep Concentration (μM) 0 min reported for CCCCCC(CCC1C(O)CC2Cc3c(cccc3OCC(=O)O)CC21)OC(=O)COc1ccccc1 (stereo not drawn) [LXV] = 0.0135 µM
